Reference source: PubChem BioAssay (NCATS)

system name: Cytochrome P450 2D6 (Homo sapiens)
assay info: Cytochrome P450 family 2 subfamily D member 6 (CYP2D6) small molecule antagonists: luciferase biochemical (cell-free) qHTS assay (AID 1645840); further: nearly all actives have a fitted effect of over 55% in size
assay setup: P450-Glo CYP2D6 enzyme, luciferin luminescence, 1 h; series mostly up to 57.4 µM
From the text: National Center for Advancing Translational Sciences [NCATS] Assay Overview: Cytochrome P450 (CYP) enzymes are membrane-bound hemeproteins that play a key role in metabolism of drugs and xenobiotics. Assaying the effect of chemicals on CYP isozymes is useful to minimize the adverse drug reactions and toxicities in drug development process. […] The luciferin products formed are detected with a luciferin detection reagent, and the amount of light produced is proportional to CYP activity. […]
Records with an inconclusive call do not appear. The source made the active and inactive calls. The call rests on the fitted dose curve; in most records, active means well fitted inhibition curve with a large enough effect in the repeat runs; inconclusive means weak or mixed curves; inactive means flat fitted curve, though single readings scatter.
Answer with one of the outcomes given here: active, inactive

Please review the entries below; each comes with its answer.
[
  {
    "compound": "COC(=O)C1=C(C)NC(C)=C(C(=O)OC(C)(C)CN(C)CCC(c2ccccc2)c2ccccc2)C1c1cccc([N+](=O)[O-])c1 (stereo not given)",
    "label": "active"
  },
  {
    "compound": "O=C1NCN(c2ccccc2)C12CCN(CCCC(c1ccc(F)cc1)c1ccc(F)cc1)CC2",
    "label": "active"
  },
  {
    "compound": "COC(=O)[C@@H](N)Cc1ccc(O)c(O)c1",
    "label": "inactive"
  }
]

Now look at this entry.
# input Which outcome was entered for the compound NC(=O)N1c2ccccc2C=Cc2ccccc21 in this test?
# output inactive

====

System: CP268
assay info: qHTS profiling for inhibitors of Plasmodium falciparum proliferation (AID 504749); further: nearly all actives have a fitted effect of over 60% in size
assay setup: P. falciparum in erythrocytes, SYBR Green DNA, 72 h; series mostly up to 28.7 µM
Records with an inconclusive call do not appear. Active and inactive are the calls of the source. Calls follow the shape of the dose curve; as a rule, active = well fitted inhibition curve with a large enough effect; inconclusive = small, poorly fitted or top-dose-only effect; inactive = flat fitted curve, though single readings scatter.
Hi! Could you answer with just one of these? yes (1) = active, no (0) = inactive

Illustrative cases are given below, each with its answer.
[
  {
    "molecule": "COc1cc2c(cc1OC)-c1cc(=Nc3c(C)cc(C)cc3C)n(C)c(=O)n1CC2",
    "label": "yes (1)"
  },
  {
    "molecule": "Cc1nc2c([nH]1)c(=O)n(C)c(=O)n2Cc1ccco1",
    "label": "no (0)"
  }
]

# input Returns: the outcome recorded for COc1ccc(CN(CCN(C)C)c2ccccn2)cc1 in this assay.
# output no (0)

# input Please share the test call associated with CCCN(CCC)CCc1cccc2c1CC(=O)N2 .
# output no (0)

# input Check the results log: what was the call for CNC1(C)C2CCC(C2)C1(C)C (stereo unspecified) ?
# output no (0)

# input Hi, sorry to bother you, what did the test record for CN(C)CCCN1c2ccccc2Sc2ccc(C(F)(F)F)cc21 ?
# output no (0)

====

assay info: Cell Viability - NIH 3T3 (AID 541);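 further: cells exposed to compound for 40 hours; plate controls were DMSO alone for no effect and tamoxifen positive control for full effect; nearly all actives have a fitted effect of over 25% in size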
assay setup: NIH 3T3 cell viability, qHTS; at 92.2 µM (top of the series)
Description: NIH Chemical Genomics Center [NCGC] NIH Molecular Libraries Screening Centers Network [MLSCN] National Institutes of Environmental Health Sciences [NIEHS] National Toxicology Program [NTP] We have developed a 1536-well cell-based assay for quantitative high throughput screening (qHTS) against a number of cell lines to determine in vitro cytotoxicity of small molecules. […] 8. Detection; Luminescence; Viewlux plate reader […]
Results filed as inconclusive are left out.
reported endpoint: activity change, negative = cytotoxicity (%)
Answers are plain numbers, in %.

Below: 3 compounds and their reported activity change, negative = cytotoxicity.
[
  {
    "structure smiles string": "CCCCNC(=O)NS(=O)(=O)c1ccc(C)cc1",
    "activity change, negative = cytotoxicity [%]": -10.4
  },
  {
    "structure smiles string": "COc1cc(Cc2cnc(N)nc2N)cc(OC)c1OC",
    "activity change, negative = cytotoxicity [%]": -10.3
  },
  {
    "structure smiles string": "NC(=Nc1ccccc1)Nc1ccccc1",
    "activity change, negative = cytotoxicity [%]": -3.31
  }
]

As a next step, examine the compound that follows.
Please fill in: activity change, negative = cytotoxicity reported for CN=C(NC#N)NCCSCc1nc[nH]c1C = -4.92
